src = patent US10420761B2

System: pancreatic neuroendocrine cell line CM (insulinoma)
PROTOCOL NOTES: MTS cell viability assay, CM
Type: cell-based
COND: PNET, 72-hour incubation, MTS; unit inferred; read-out: GI50 CM
Let's look at some compounds and their measured GI50.

# COMPOUND, GI50 / µM
rows = [
    ("COc1ccc(Cc2c[nH]cc3c(=O)c(OC)ccc2-3)cc1O", 29),
    ("O[C@@H](c1cc(C(F)(F)F)nc2c(C(F)(F)F)cccc12)C1CCCCN1 (stereo partly shown)", 16),
    ("CCc1nc(N)nc(N)c1-c1ccc(N(C)Cc2ccccc2)c([N+](=O)[O-])c1", 0.093),
    ("Nc1nc2[nH]cc(CCc3ccc(C(=O)N[C@@H](CCC(=O)O)C(=O)O)cc3)c2c(=O)[nH]1 [Pemetrexed, pemetrexed, reference compound]", 0.087),
    ("CN(Cc1ccoc1)Cc1nnc(SCCOc2ccccc2)n1C", 32),
    ("O=c1[nH]cc(F)c(=O)[nH]1 [Compound 5-FU, 5-fluorouracil, reference compound]", 16),
    ("CCN(CC)C1=CC(=O)/C(=N/Nc2cc(Br)ccn2)C=C1", 13),
]
